Molecular target: hERG (KCNH2) (Homo sapiens, UniProt Q12809)
Sequence (Q12809 whole entry): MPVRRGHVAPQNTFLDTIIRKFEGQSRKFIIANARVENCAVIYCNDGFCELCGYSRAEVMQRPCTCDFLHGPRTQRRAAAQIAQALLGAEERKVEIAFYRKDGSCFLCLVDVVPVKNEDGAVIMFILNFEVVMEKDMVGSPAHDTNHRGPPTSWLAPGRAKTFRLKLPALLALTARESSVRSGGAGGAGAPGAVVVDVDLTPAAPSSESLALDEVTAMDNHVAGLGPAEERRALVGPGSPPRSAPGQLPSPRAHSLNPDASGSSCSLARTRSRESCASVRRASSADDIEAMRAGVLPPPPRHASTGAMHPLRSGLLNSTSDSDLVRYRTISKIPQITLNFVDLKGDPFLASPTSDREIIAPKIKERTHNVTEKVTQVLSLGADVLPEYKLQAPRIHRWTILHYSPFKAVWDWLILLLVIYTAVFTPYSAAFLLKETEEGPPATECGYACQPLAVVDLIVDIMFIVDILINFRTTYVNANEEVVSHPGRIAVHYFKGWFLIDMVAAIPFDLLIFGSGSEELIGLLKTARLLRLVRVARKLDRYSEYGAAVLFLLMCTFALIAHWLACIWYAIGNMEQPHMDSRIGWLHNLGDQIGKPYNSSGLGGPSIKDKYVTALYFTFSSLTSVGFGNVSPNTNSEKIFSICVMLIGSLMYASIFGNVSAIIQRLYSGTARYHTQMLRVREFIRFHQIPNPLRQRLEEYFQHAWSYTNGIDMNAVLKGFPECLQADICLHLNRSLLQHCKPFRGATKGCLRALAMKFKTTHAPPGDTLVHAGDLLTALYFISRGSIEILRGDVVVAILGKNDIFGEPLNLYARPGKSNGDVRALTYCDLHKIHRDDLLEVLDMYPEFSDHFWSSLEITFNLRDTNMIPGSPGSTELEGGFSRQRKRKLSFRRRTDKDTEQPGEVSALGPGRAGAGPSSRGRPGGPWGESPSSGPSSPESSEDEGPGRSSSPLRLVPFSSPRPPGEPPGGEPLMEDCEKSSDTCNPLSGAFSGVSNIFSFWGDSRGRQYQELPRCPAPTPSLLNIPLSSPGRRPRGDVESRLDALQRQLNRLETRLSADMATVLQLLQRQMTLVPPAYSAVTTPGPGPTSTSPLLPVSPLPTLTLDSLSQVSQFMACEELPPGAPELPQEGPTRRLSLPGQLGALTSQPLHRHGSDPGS
Experiment: Inhibition of human ERG at 10 uM by high-throughput rubidium efflux assay
# maps each entry to its inhibition at 10 µM

{"columns": ["molecule", "test system", "inhibition at 10 µM"],
 "data": [
  ["FC1(c2ccccn2)CCCN(c2nnc(N3CCC(N4CCCCC4)CC3)s2)C1 (stereo not drawn)", "hERG (KCNH2) (Homo sapiens, UniProt Q12809)", "16%"],
  ["c1ccc(C2CN(c3nnc(N4CCC(N5CCCCC5)CC4)s3)CCO2)nc1 (single isomer, unassigned; enantiomer 2)", "hERG (KCNH2) (Homo sapiens, UniProt Q12809)", "26%"],
  ["C1=C(c2ccccn2)CCCN1c1nnc(N2CCC(N3CCCCC3)CC2)s1", "hERG (KCNH2) (Homo sapiens, UniProt Q12809)", "54%"]
]}

====

Target: Cytochrome P450 2C9 (Homo sapiens, UniProt P11712)
Sequence (P11712 whole entry): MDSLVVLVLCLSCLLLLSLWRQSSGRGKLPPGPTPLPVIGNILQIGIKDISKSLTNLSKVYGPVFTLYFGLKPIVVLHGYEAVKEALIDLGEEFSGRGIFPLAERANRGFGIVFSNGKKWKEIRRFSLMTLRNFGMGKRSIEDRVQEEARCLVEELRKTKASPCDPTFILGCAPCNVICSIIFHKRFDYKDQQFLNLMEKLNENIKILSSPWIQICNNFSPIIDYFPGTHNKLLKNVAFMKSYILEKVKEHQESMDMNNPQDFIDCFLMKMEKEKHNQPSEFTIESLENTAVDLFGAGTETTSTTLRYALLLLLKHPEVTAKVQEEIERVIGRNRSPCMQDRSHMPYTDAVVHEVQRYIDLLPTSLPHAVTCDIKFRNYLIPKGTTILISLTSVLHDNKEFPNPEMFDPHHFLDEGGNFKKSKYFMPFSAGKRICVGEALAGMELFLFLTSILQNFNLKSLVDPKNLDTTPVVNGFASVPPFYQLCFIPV
Assay: Inhibition of CYP2C9 under preincubation conditions
Assay type: ADME
Conditions: read-out: INH
pIC50: −log10 of the molar value.

{"columns": ["compound", "pIC50"],
 "data": [
  ["c1ccc(C2CN(c3nnc(N4CCC(N5CCCCC5)CC4)s3)CCO2)nc1 (single isomer, unassigned; enantiomer 2)", "< 4.70"],
  ["C1=C(c2ccccn2)CCCN1c1nnc(N2CCC(N3CCCCC3)CC2)s1", "< 4.70"],
  ["FC1(c2ccccn2)CCCN(c2nnc(N3CCC(N4CCCCC4)CC3)s2)C1 (stereo not drawn)", "< 4.70"]
]}

====

Listing of entries alongside the reported Cmax.
Assay: Cmax in ICR mouse plasma at 30 mg/kg, po after 4 hrs
Format: ADME, organism-based
Set-up: dose 30 mg/kg, route oral

{"columns": ["compound", "Cmax"],
 "data": [
  ["FC1(c2ccccn2)CCCN(c2nnc(N3CCC(N4CCCCC4)CC3)s2)C1 (stereo not drawn)", "2970 ng/mL"],
  ["c1ccc(C2CN(c3nnc(N4CCC(N5CCCCC5)CC4)s3)CCO2)nc1 (single isomer, unassigned; enantiomer 2)", "1500 ng/mL"],
  ["C1=C(c2ccccn2)CCCN1c1nnc(N2CCC(N3CCCCC3)CC2)s1", "1470 ng/mL"]
]}

====

Assay: Drug level in ICR mouse brain at 30 mg/kg, po after 4 hrs
Format: ADME, organism-based
Design: dose 30 mg/kg, route oral
Details: read-out: Drug uptake

{"columns": ["molecule", "output unit", "concentration at 4 h"],
 "data": [
  ["c1ccc(C2CN(c3nnc(N4CCC(N5CCCCC5)CC4)s3)CCO2)nc1 (single isomer, unassigned; enantiomer 2)", "ng/g", 24],
  ["C1=C(c2ccccn2)CCCN1c1nnc(N2CCC(N3CCCCC3)CC2)s1", "ng/g", 1040],
  ["FC1(c2ccccn2)CCCN(c2nnc(N3CCC(N4CCCCC4)CC3)s2)C1 (stereo not drawn)", "ng/g", 674]
]}

====

Target: Histamine H3 receptor (Mus musculus, UniProt P58406)
Sequence (P58406 whole entry): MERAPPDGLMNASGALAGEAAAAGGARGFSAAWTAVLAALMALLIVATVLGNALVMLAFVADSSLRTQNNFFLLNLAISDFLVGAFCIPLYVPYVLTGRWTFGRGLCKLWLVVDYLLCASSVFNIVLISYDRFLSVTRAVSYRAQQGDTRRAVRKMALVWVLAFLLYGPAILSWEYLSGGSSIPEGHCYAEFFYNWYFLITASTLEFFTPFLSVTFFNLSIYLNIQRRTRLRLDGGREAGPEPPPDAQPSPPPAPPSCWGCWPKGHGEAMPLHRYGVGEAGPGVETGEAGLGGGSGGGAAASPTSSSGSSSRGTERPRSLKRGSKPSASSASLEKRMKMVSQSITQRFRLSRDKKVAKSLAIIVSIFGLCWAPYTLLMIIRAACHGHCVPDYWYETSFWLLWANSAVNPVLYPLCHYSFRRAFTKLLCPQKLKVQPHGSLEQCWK
Assay: Displacement of [3H]-N-alpha-methylhistamine from mouse recombinant histamine H3 receptor after 30 mins by scintillation counting
pKi: −log10 of the molar value.
pKi for assorted compounds

{"columns": ["compound", "test system", "pKi"],
 "data": [
  ["O=C(Nc1nnc(N2CCC(N3CCCCC3)CC2)s1)NC1CCCC1", "Histamine H3 receptor (Mus musculus, UniProt P58406)", 7.33],
  ["COC1(c2ccccn2)CCCN(c2nnc(N3CCC(N4CCCCC4)CC3)s2)C1 (configuration not stated)", "Histamine H3 receptor (Mus musculus, UniProt P58406)", 7.27],
  ["COC1CCCN(c2nnc(N3CCC(N4CCCCC4)CC3)s2)C1 (configuration not stated)", "Histamine H3 receptor (Mus musculus, UniProt P58406)", 7.34],
  ["FC1(F)CCN(c2nnc(N3CCC(N4CCCCC4)CC3)s2)C1", "Histamine H3 receptor (Mus musculus, UniProt P58406)", 7.21],
  ["O=C1CCCCN1c1nnc(N2CCC(N3CCCCC3)CC2)s1", "Histamine H3 receptor (Mus musculus, UniProt P58406)", 6.92],
  ["C1=C(c2ncccn2)CN(c2nnc(N3CCC(N4CCCCC4)CC3)s2)CC1", "Histamine H3 receptor (Mus musculus, UniProt P58406)", 7.36],
  ["FC1CCCN(c2nnc(N3CCC(N4CCCCC4)CC3)s2)C1 (configuration not stated)", "Histamine H3 receptor (Mus musculus, UniProt P58406)", 7.25],
  ["OC1CCCN(c2nnc(N3CCC(N4CCCCC4)CC3)s2)C1 (configuration not stated)", "Histamine H3 receptor (Mus musculus, UniProt P58406)", 7.17],
  ["OC1(c2ncccn2)CCCN(c2nnc(N3CCC(N4CCCCC4)CC3)s2)C1 (configuration not stated)", "Histamine H3 receptor (Mus musculus, UniProt P58406)", 7.11],
  ["C1=C(c2ccccn2)CCCN1c1nnc(N2CCC(N3CCCCC3)CC2)s1", "Histamine H3 receptor (Mus musculus, UniProt P58406)", 8.30],
  ["c1cnc(C2CN(c3nnc(N4CCC(N5CCCCC5)CC4)s3)CCO2)cn1 (configuration not stated)", "Histamine H3 receptor (Mus musculus, UniProt P58406)", 7.80],
  ["c1ccc(C2CN(c3nnc(N4CCC(N5CCCCC5)CC4)s3)CCO2)nc1 (stereo in doubt; 5t)", "Histamine H3 receptor (Mus musculus, UniProt P58406)", 7.17],
  ["O=C1N(c2nnc(N3CCC(N4CCCCC4)CC3)s2)CCN1C1CCCC1", "Histamine H3 receptor (Mus musculus, UniProt P58406)", 7.28],
  ["c1ccc(C2CN(c3nnc(N4CCC(N5CCCCC5)CC4)s3)CCO2)nc1 (stereo in doubt; 5r)", "Histamine H3 receptor (Mus musculus, UniProt P58406)", 7.96],
  ["C1=C(c2ccccn2)CN(c2nnc(N3CCC(N4CCCCC4)CC3)s2)CC1", "Histamine H3 receptor (Mus musculus, UniProt P58406)", 7.31],
  ["FC1(F)CCN(c2nnc(N3CCC(N4CCCCC4)CC3)s2)CC1", "Histamine H3 receptor (Mus musculus, UniProt P58406)", 7.74],
  ["FC1(c2ccccn2)CCCN(c2nnc(N3CCC(N4CCCCC4)CC3)s2)C1 (configuration not stated)", "Histamine H3 receptor (Mus musculus, UniProt P58406)", 8.15],
  ["CC1CN(c2nnc(N3CCC(N4CCCCC4)CC3)s2)CC(C)O1 (configuration not stated)", "Histamine H3 receptor (Mus musculus, UniProt P58406)", 7.46],
  ["O=C1N(c2ccccc2)CCCN1c1nnc(N2CCC(N3CCCCC3)CC2)s1", "Histamine H3 receptor (Mus musculus, UniProt P58406)", 7.49],
  ["c1ccc(C2CN(c3nnc(N4CCC(N5CCCCC5)CC4)s3)CCO2)nc1 (single isomer, unassigned; enantiomer 2)", "Histamine H3 receptor (Mus musculus, UniProt P58406)", 8.40],
  ["c1ccc(C2CCCN(c3nnc(N4CCC(N5CCCCC5)CC4)s3)C2)cc1 (configuration not stated)", "Histamine H3 receptor (Mus musculus, UniProt P58406)", 6.96],
  ["OC1(c2ccccn2)CCCN(c2nnc(N3CCC(N4CCCCC4)CC3)s2)C1 (configuration not stated)", "Histamine H3 receptor (Mus musculus, UniProt P58406)", 7.26]
]}
